Reference source: patent US10017481B2

- experimental target: Oxytocin receptor (OT receptor) (Homo sapiens, UniProt P30559)
- Construct: expressed in transfected cells; host or cells: Ca2+ optimized hematopoietic cell lines (rat)
- Sequence (P30559 whole entry, species assumed): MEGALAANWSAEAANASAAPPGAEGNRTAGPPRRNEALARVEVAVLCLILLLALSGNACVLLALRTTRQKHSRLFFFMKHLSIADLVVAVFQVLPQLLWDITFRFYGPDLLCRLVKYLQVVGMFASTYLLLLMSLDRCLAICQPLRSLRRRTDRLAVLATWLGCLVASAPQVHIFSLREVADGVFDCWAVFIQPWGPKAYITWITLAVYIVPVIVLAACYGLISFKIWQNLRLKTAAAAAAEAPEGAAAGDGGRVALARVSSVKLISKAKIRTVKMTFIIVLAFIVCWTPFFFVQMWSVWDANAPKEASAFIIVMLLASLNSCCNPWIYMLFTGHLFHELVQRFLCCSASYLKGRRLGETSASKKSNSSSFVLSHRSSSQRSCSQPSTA
- test protocol: Ca2+ flux (FLIPR) assay, OT receptor, agonist/antagonist mode
- Type: cell-based
- protocol conditions: antagonist mode
observed property: IC50 (µM)
Use µM as the unit, but write only the number.

Ask | So what's the measured IC50 for this one? CN1CCNC(=O)c2cncc(c2)-c2cccc(c2)OC[C@@H]2C[C@@H](NS(=O)(=O)c3ccccc3)CN2C(=O)C1 [Ex. 103]
Reply | 6.9

Ask | So what's the measured IC50 for this one? CN1CCNC(=O)c2cncc(c2)-c2cccc(c2)OC[C@@H]2C[C@@H](NC(=O)Cc3ccc4ccccc4c3)CN2C(=O)C1 [Ex. 96]
Reply | 1.2

Ask | So what's the measured IC50 for this one? CC(=O)N[C@@H]1C[C@H]2COc3cccc(c3)-c3cncc(c3)C(=O)NCCN(Cc3cccc(F)c3)CC(=O)N2C1 [Ex. 100]
Reply | 4.6

Ask | So what's the measured IC50 for this one? CN1CCNC(=O)c2cncc(c2)-c2cccc(c2)OC[C@@H]2C[C@@H](NC(=O)OC(C)(C)C)CN2C(=O)C1 [Ex. 94]
Reply | 3

Ask | So what's the measured IC50 for this one? CN1CCNC(=O)c2cncc(c2)-c2cccc(c2)OC[C@@H]2C[C@@H](NC(=O)Cc3cccc4ccccc34)CN2C(=O)C1 [Ex. 101]
Reply | 2.6

* * *

- test protocol: Metabolic stability assay, CD-1 mouse microsomes
- Type: in vitro ADME
- protocol conditions: both sexes; CD-1 mouse microsomes, 10 μM, 1 mg/ml protein, 37° C.; read-out: Metabolic Stability T ½ [min] mouse/(rat)
Kindly supply the reported half-life at 10 μM values for the records listed here.

Ask | So what's the measured half-life at 10 μM for this one? C[C@H]1COc2cccc(c2)-c2cccc(c2)C(=O)N(C)[C@H](C(=O)Nc2ccccc2)CCC(=O)N1 [Ex. 72]
Reply | 35 min

Ask | So what's the measured half-life at 10 μM for this one? CNC(=O)[C@@H]1CCC(=O)N[C@@H](C)COc2cccc(c2)-c2cccc(c2)C(=O)N1C [Ex. 70]
Reply | > 60 min

Ask | So what's the measured half-life at 10 μM for this one? COc1ccc2c(c1)-c1cccc(c1)C(=O)N(C)[C@H](C(=O)N[C@@H](C)c1ccccc1)CCC(=O)N[C@H](C)CO2 [Ex. 58]
Reply | > 60 min

Ask | So what's the measured half-life at 10 μM for this one? C[C@H]1COc2cccc(c2)-c2cccc(c2)C(=O)N(C)[C@H](C(=O)NCCO)CCC(=O)N1 [Ex. 81]
Reply | > 60 min

Ask | So what's the measured half-life at 10 μM for this one? C[C@H]1COc2cccc(c2)-c2cccc(c2)C(=O)N(C)[C@H](C(=O)NCc2cn(C)cn2)CCC(=O)N1 [Ex. 88]
Reply | > 60 min

Ask | So what's the measured half-life at 10 μM for this one? COCCNC(=O)[C@@H]1CCC(=O)N[C@H](C)COc2ccc(OC)cc2-c2cccc(c2)C(=O)N1C [Ex. 51]
Reply | > 60 min

Ask | So what's the measured half-life at 10 μM for this one? COc1ccc2c(c1)-c1cccc(c1)C(=O)N(C)[C@H](C(=O)NCc1cccnc1)CCC(=O)N[C@H](C)CO2 [Ex. 50]
Reply | 40 min
